Please respond with reported inhibition for every item in the list.
# assay-notes: RAM pathway blockade in budding yeast – dse1pr::URA3 reporter, 5-FOA selection, pilot screen (AID 869);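 also: 0% = DMSO wells with no growth and 100% = 10 µM 1-NA-PP1 with full growth; RAM network block rescues cells from 5-FOA so hits raise OD615 growth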
# setup-conditions: S. cerevisiae dse1pr::URA3 5-FOA growth, OD615, 2 d; at 10 µM; stronger effect = higher value; strain carries analog-sensitive mutant Cbk1 kinase
Response body: numeric value in %, unit text excluded.

Dear colleague, I am looking for the recorded inhibition of the following compound: "COC(=O)c1sc(NC(=O)COc2ccccc2OC)nc1C"
1.06

# input compound: "CCCCC(=O)NCCc1cc2c(C)ccc(C)c2[nH]c1=O" ; wanted: its inhibition
1.61

Return reported inhibition; argument: "Cc1cc(-c2nc3ncccc3o2)ccc1NC(=O)CC(C)C"
1.06

If you can, please state the reported inhibition value of "CC(=O)Nc1nnc(SCC(=O)NCCOc2ccccc2)s1" .
0.52

What measured inhibition goes with "CC(=O)Nc1ccc(S(=O)(=O)N2CCN(CCC#N)CC2)cc1" ?
1.86

Please look up its inhibition: COc1cccc(-c2nc3n(n2)C(c2cccs2)C(C(=O)Nc2cccnc2)=C(C)N3)c1 (stereo unspecified)
-0.145

inhibition for "CCc1ccccc1NC(=O)c1cnc2n(c1=O)CCS2" ?
1.32

Find the recorded inhibition belonging to COC(=O)c1ccc(NC(=O)C2C3CCC(C3)C2C(=O)O)cc1 (stereo unspecified) and report it.
1.04

Returns the measured inhibition for the input compound. Input: "CCN1CCN(C(=O)Cn2ncc3ccsc3c2=O)CC1"
1.72

I have this compound here, "CCOc1ccc(-c2nnc3n2N=C(c2ccc(OC)cc2)CS3)cc1" , and I need its recorded inhibition.
1.72

Please report the recorded inhibition for "CCN(CC)C(=O)c1ccc(CS(=O)(=O)c2ccc(OC)cc2)o1" .
1.96

----------
Please go through the items and note down their viability increase.
# assay-notes: doxorubicin toxicity protection in MRP-1 cells – H69AR cells, CellTiter-Glo, duplicate, MRP-1 activator project, pilot screen (AID 807);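 also: compound pretreatment 18-22 h then 72 h combined with doxorubicin; 0% = doxorubicin alone and 100% = vehicle without doxorubicin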
# setup-conditions: H69AR viability with doxorubicin, CellTiter-Glo luminescence; at 10 µM; stronger effect = higher value
Give just the numeric value; % need not be written.

Reported viability increase, compound "CCOC(=O)c1cc2c(=O)n3ccccc3nc2n(CC(C)C)c1=NC(=O)c1ccco1" : ____
-7.74

Which viability increase value belongs to "COc1ccc(NC(=O)CSc2nnc(Cc3cccn3C)n2-c2ccc(F)cc2)cc1OC" ?
-3.01

Name the reported viability increase value associated with the compound CN(CCCNC(=O)C1CCC(=O)N1Cc1ccc(F)cc1)c1ccccc1 (stereo not drawn)
-1.51

Reported viability increase for "Cc1cc2cc(CNC(=O)c3ccc(S(=O)(=O)N4CCOCC4)cc3)ccc2[nH]1" : what is it?
0.86

Which measured viability increase value corresponds to COCCOC(=O)C1=C(C)OC(N)=C(C#N)C1c1ccc2c(c1)OCO2 (stereo not drawn) ?
-1.47

Form field: reported viability increase of CCN1CCN(C(c2cccs2)C(C)NC(=O)c2ccccc2)CC1 (stereo not drawn)
-0.71

For the compound "c1csc(Cc2nc3ccccc3[nH]2)c1" , what viability increase is on record?
0.14

Item CCC(C)(C(=O)NC1CCCC1)N(Cc1cccs1)C(C)=O (stereo not drawn) has what recorded viability increase?
-0.17

Entry CCOc1ccc(NC(=O)CN2C(=O)C3CCCN3C2=O)cc1 (stereo not drawn) : reported viability increase = ?
-0.9

Requested field: viability increase. Item: "CC(=O)c1ccc(NC(=O)CSC(C)C)cc1"
-0.64

So what's the measured viability increase for this one? "CCN1CCN(Cc2ccc(NC(=O)Nc3ccccc3)cc2)CC1"
0.37

Fill in: viability increase of "COc1cc(OC)cc(C(=O)Nc2cccc(NC(C)=O)c2)c1" is ___
-2.31

viability increase lookup needed for "Cn1c(=O)c2nnn(/N=C(\c3ccccc3)C3CC3)c2n(C)c1=O" , thanks.
-1.2

Look up viability increase for this compound: O=C(O)c1ccccc1S(=O)(=O)NCC(O)COc1ccc(Br)cc1 (stereo not drawn)
0.84

Name the reported viability increase value associated with the compound "CCOC(=O)N1CCC(Nc2nc3ccccc3n3cnnc23)CC1"
-4.12

May I ask what viability increase has been recorded for Cc1cc(NC(=O)CSc2nc3c(c(=O)n2Cc2ccccc2)SC(C)C3)no1 (stereo not drawn) ?
-2.6

Bench note: what viability increase did CS(=O)(=O)N(Cc1ccco1)CC(O)Cn1c2ccccc2c2ccccc21 (stereo not drawn) show?
-4.51

// viability increase lookup, key: "CCOC(=O)N1CCC(NC(=O)c2cc(C(=O)NC3CCCC3)ccc2CO)CC1"
-0.72

Returns the measured viability increase for the input compound. Input: "Cn1c(Cc2ccccc2)nnc1SCC(=O)NC1CCCCC1"
0.74

Entry CCOC(=O)CN1CC23C=CC(O2)C(C(=O)Nc2ccc(C(C)=O)cc2)C3C1=O (stereo not drawn) has what viability increase?
-1.78

Quick one: viability increase for COc1cc(C(O)c2nc3ccccc3n2C)cc(OC)c1OC (stereo not drawn) ?
-0.62

Return reported viability increase; argument: "CCOc1ccc(Cn2nnc(C(=O)Nc3ccc(OC)cc3OC)c2N)cc1"
-4.36

Look at this compound and give its reported viability increase. O=C(Nc1ccccc1)C1=C(O)CC(c2ccoc2)CC1=Nc1ccccc1 (stereo not drawn)
-4.69

----------
# assay-notes: HUVEC growth inhibition – cell-based, human, primary screen (AID 575);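 also: 100% = median of untreated cell wells with 0.1% DMSO on each plate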
# setup-conditions: HUVEC proliferation, CellTiter-Glo luminescence, 72 h; at 10 µM; stronger effect = lower value
test-readout: viability (%)
Record the value in %, omitting the unit from your answer.

What does the data say about its viability? Entry: "CCCCC(=O)NCCc1cc2c(C)ccc(C)c2[nH]c1=O"
119

Need viability, item "CCOC(=O)c1oc2c(CN3CCN(C)CC3)c(O)ccc2c(=O)c1-c1ccccc1OC"
99.5

Consider the compound COc1ccc(OC)c(C2=NOC(C(=O)Nc3cc(C)nn3-c3ccccc3)C2)c1 (stereo unspecified) and give its measured viability.
114

GET /values?readout=viability&item= "c1ccn2c(SCc3ccc4c(c3)OCCO4)nnc2c1"
93.8

Which viability reading was recorded for the compound "N#Cc1c2n(c(=O)[nH]c1=O)CCCCC2" ?
96.2

What value of viability has been reported for the following compound? "CCCCN(C)C(=O)c1ccc(CS(=O)(=O)c2ccccc2C)o1"
120

Using the record for "Cc1c(C(=O)Nc2nnc(C(F)(F)F)s2)oc2ccccc12" , report its viability.
51

Param item = "CCOC(=O)C1CCN(Cc2ccc(OC)c(C)c2OC)CC1" ; retrieve measured viability.
108

Entry "Cc1ccc2[nH]c(=O)c3cc(C(=O)NCCN4CCN(C)CC4)sc3c2c1" : reported viability = ?
97.1

What value of measured viability is listed for "O=C(c1cc2ccccc2oc1=O)N1CCN(c2ccc(N3CCOCC3)nn2)CC1" ?
88.5

Return reported viability; argument: "Cc1ccc(SCC(=O)NCCN2C(=O)CSC2=O)c(C)c1"
92.3

----------
Please go through the items and note down their RAM network inhibition.
# assay-notes: RAM signaling pathway blockade in yeast – S. cerevisiae, Pdr1DBD-CYC8 efflux-inhibited sensitized strain, primary screen (AID 1298);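 also: 0% = DMSO untreated cells without growth and 100% = 10 µM 1-NA-PP1 full growth; higher means more yeast growth rescued from 5-FOA killing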
# setup-conditions: S. cerevisiae cbk1-as DSE1-URA3 strain, 5-FOA growth OD615, 2 d; at 50 µM; stronger effect = higher value
I only need the number, in %, no unit after it.

Reported RAM network inhibition for "COc1ccc(NC(=O)CSc2nc3c(c(=O)n2-c2ccccc2OC)SCC3)cc1" : what is it?
3.97

Look up RAM network inhibition: "Cn1c(=O)c2cc(NCc3ccccc3)nnc2n(C)c1=O"
-0.94

Quick one: RAM network inhibition of "CCOc1ccc(N(CC(=O)OC)S(=O)(=O)c2ccc(OC)c(OC)c2)cc1" ?
2.44

Can you look up the measured RAM network inhibition of Cc1ccnc(NC(=O)C2CCC(CNc3c(N4CCCC4)c(=O)c3=O)CC2)c1 (stereo not given) for me?
-0.21

Could you tell me which RAM network inhibition is on file for "COc1ccc(-c2nn(-c3ccccc3)cc2/C=N/n2cnnc2)cc1OC" ?
-1.68

----------
# assay-notes: MRP1 drug-resistance reversers in H69AR cells – cell-based, doxorubicin co-treatment, pilot screen (AID 601)
# setup-conditions: H69AR cells, CellTiter-Glo, 72 h; compound alone cytotoxicity; at 10 µM
test-readout: viability (%)
Field: numeric (%). Do not append units.

Returns the measured viability for the input molecule. Input: "CN(C1CCCCC1)S(=O)(=O)c1ccc(S(=O)(=O)N2CCN(CCC#N)CC2)cc1"
103

// lookup viability for COC(=O)C1=C(N)OC2=C(C(=O)CCC2)C1c1cccs1 (stereo not given)
101

Which viability value belongs to "COc1ccc(OCc2nc(C#N)c(N3CCN(c4ccc(OC)cc4)CC3)o2)cc1" ?
94

Data request, read-out viability, for COc1ccccc1N1C(=O)CCC1(C#N)c1ccccc1 (stereo not given)
117

Sample "CCCc1cc(=O)oc2cc(C)cc(OC(=O)c3ccco3)c12" — what was its viability?
95.8

Entry COc1ccccc1CNC(=O)C1CCCN(S(=O)(=O)c2cccc3cccnc23)C1 (stereo not given) has what viability?
92

Please report the recorded viability for NC(=O)CN1C(=O)C(O)(CC(=O)c2ccccc2O)c2ccccc21 (stereo not given) .
91.8

What viability value was documented for this molecule, CC1CN(c2ccc(Oc3ccccc3)cc2)c2nc3c(c(=O)n(CC(N)=O)c(=O)n3C)n2C1 (stereo not given) ?
79.1

Recorded viability for "COC(=O)Cn1c(CN2CCN(c3ccccc3F)CC2)nc2c1c(=O)n(C)c(=O)n2C" , please?
93.8

Dear colleague, I am looking for the recorded viability of the following molecule: "Cn1cc(Cl)c(C(=O)N(Cc2ccccc2)c2ccccn2)n1"
92.2
